# subject of test: KAT-8 (Homo sapiens (Human), UniProt Q9H7Z6)
# Sequence (Q9H7Z6 other isoform, or with tags, fused parts or gaps): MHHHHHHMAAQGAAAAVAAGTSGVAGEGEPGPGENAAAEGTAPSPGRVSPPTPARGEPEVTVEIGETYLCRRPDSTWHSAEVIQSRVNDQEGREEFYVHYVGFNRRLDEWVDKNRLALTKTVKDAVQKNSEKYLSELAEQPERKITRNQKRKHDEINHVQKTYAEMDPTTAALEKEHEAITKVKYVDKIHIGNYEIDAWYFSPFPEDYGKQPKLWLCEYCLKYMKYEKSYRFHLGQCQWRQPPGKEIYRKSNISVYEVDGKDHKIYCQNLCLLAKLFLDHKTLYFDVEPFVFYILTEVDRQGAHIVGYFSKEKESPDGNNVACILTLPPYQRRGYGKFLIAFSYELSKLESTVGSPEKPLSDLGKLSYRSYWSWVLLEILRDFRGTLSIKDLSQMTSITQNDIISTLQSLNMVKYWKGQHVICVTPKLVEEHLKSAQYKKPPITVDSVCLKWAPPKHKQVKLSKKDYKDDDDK
# experimental protocol: KAT-8 biochemical inhibition assay (SAMDI mass spectrometry)
endpoint: IC50

These solved cases illustrate the format of a correct answer.
compound	reported
O=C(NNS(=O)(=O)CC1CCOCC1)c1cc(-c2cscn2)cc(Cl)c1F	> 100 µM
Cn1cnc(-c2cc(Cl)c(F)c(C(=O)NNS(=O)(=O)CC3CC4CC4C3)c2)c1 (stereo not drawn)	10 to 50 µM

Okay, next one:
Which measured IC50 value corresponds to Cn1cnc(-c2cc(Cl)c(F)c(C(=O)NNS(=O)(=O)CC3CCCN(S(C)(=O)=O)C3)c2)c1 (stereo not drawn) ? 50 to 100 µM

meta.source: patent US11685732B2
